Assay: MRT (0 to infinity) in Sprague-Dawley rat at 1 mg/kg, iv measured upto 24 hrs by LC-MS/MS analysis
Type: ADME, organism-based
Conditions: in vivo
valueType: MRT inf (h)
Provide the reading as a plain figure in h.

Recorded MRT inf for NC(=O)c1cccc2[nH]c(NC(=O)c3cccc(C(=O)N4CCC(Nc5ncc(I)cn5)CC4)c3)nc12 , please?
1.87

----------
For each entry below, report its pIC50 value.
System: MDA-MB-468
Experiment: Antiproliferative activity against human MDA-MB-468 cells assessed as inhibition of cell growth incubated for 24 hrs by MTT assay
Type: functional, cell-based
Conditions: MDA-MB-468, 24 h
Scale explanation: pIC50 corresponds to minus log10 of a concentration expressed in moles per litre.

Given COc1cnc(NC2CCN(C(=O)c3ccc(C(=O)Nc4nc5c(C(N)=O)cccc5[nH]4)cc3)CC2)nc1 , state its recorded pIC50.
4.54

Next compound: NC(=O)c1cccc2[nH]c(NC(=O)c3cccc(C(=O)N4CCN(c5ncc(Cl)cn5)CC4)c3)nc12
4.62

Entry to check: NC(=O)c1cccc2[nH]c(NC(=O)c3ccc(C(=O)N4CCC(Nc5ncc(Br)cn5)CC4)cc3)nc12
4.67

And what about the compound NC(=O)c1cccc2[nH]c(NC(=O)c3ccc(S(=O)(=O)N4CCC(Nc5ncc(C(F)(F)F)cn5)CC4)cc3)nc12 ?
4.60

----------
Test system: MDA-MB-468
Experiment: Antiproliferative activity against human MDA-MB-468 cells assessed as inhibition of cell growth incubated for 24 hrs by MTT assay
Type: functional, cell-based
Details: MDA-MB-468, 24 h
Label Fulfilled when IC50 is strictly below 20 µM; otherwise label Not fulfilled.

In plain terms, does NC(=O)c1cccc2[nH]c(NC(=O)c3cccc(C(=O)N4CCC(Nc5ncc(I)cn5)CC4)c3)nc12 come in under 20 µM for IC50?
Fulfilled

Request: CCc1cnc(NC2CCN(C(=O)c3ccc(C(=O)Nc4nc5c(C(N)=O)cccc5[nH]4)cc3)CC2)nc1
Not fulfilled

What about COc1cnc(NC2CCN(C(=O)c3cccc(C(=O)Nc4nc5c(C(N)=O)cccc5[nH]4)c3)CC2)nc1 ?
Not fulfilled

Param item: NC(=O)c1cccc2[nH]c(NC(=O)c3ccc(CN4CCC(Nc5ncc(Br)cn5)CC4)cc3)nc12
Not fulfilled

// same read-out, input: NC(=O)c1cccc2[nH]c(NC(=O)c3cccc(C(=O)N4CCN(c5ncc(C(F)(F)F)cn5)CC4)c3)nc12
Fulfilled

Please do the same for N#Cc1cnc(N2CCN(C(=O)c3ccc(C(=O)Nc4nc5c(C(N)=O)cccc5[nH]4)cc3)CC2)nc1 as well.
Not fulfilled

For NC(=O)c1cccc2[nH]c(NC(=O)c3ccc(C(=O)N4CCN(c5ncc(I)cn5)CC4)cc3)nc12 then?
Not fulfilled

For NC(=O)c1cccc2[nH]c(NC(=O)c3ccc(C(=O)N4CCN(c5ncc(Cl)cn5)CC4)cc3)nc12 then?
Not fulfilled

----------
Experiment: AUC (0 to infinity) in Sprague-Dawley rat at 10 mg/kg, po measured upto 24 hrs by LC-MS/MS analysis
Format: ADME, organism-based
Settings: in vivo
valueType: AUC(0-inf) (ng·h/mL)
# number only, unit ng·h/mL dropped from output

Record request: AUC(0-inf) value, item NC(=O)c1cccc2[nH]c(NC(=O)c3cccc(C(=O)N4CCC(Nc5ncc(I)cn5)CC4)c3)nc12
71.2
